Test system: yCM65 (Δpdr1, Δerg4)
MEASUREMENT DESCRIPTION: Growth inhibition (sensitivity to cytotoxic products) as measure of permeability, strain yCM65
Assay type: cell-based, Saccharomyces cerevisiae
TEST CONTEXT: Saccharomyces cerevisiae; strain yCM65 (Δpdr1, Δerg4); YNB minimum medium, 28° C., 48 hours, OD 700 nm; read-out: EC50
Numbered stars: 1 amine (or outer) side, 2 acyl side, 3 side chain; on linkers, the order of the positions; unused ones are H or OH. Bridge positions count the residues as written; N and C are the ends. Square brackets hold non-standard residues; d marks the D form. Peptide text beside a SMILES is read from it. I, II: the chains in the order shown. Actinocin(9to1) = Cc1c2oc3c(C)ccc(C(=O)[*:1])c3nc-2c(C(=O)[*:2])c(N)c1=O; NMeV = CN[C@H](C(=O)O)C(C)C; Sar = CNCC(=O)O
ENDPOINT LABEL: EC50 (µM)
Your answer is read as µM, so omit the unit and give the number.

Cc1c2oc3c(C)ccc(C(=O)N[C@@H]4C(=O)N[C@H](C(C)C)C(=O)N5CCC[C@H]5C(=O)N(C)CC(=O)N(C)[C@@H](C(C)C)C(=O)O[C@@H]4C)c3nc-2c(C(=O)N[C@@H]2C(=O)N[C@H](C(C)C)C(=O)N3CCC[C@H]3C(=O)N(C)CC(=O)N(C)[C@@H](C(C)C)C(=O)O[C@@H]2C)c(N)c1=O [ACTINOMYCIN D, actinomycin D] (I: T[dV]P[Sar][NMeV] / II: T[dV]P[Sar][NMeV]; ester I:1-I:C, II:1-II:C; linker I:N-II:N via Actinocin(9to1)) = 5.8

Asked: Specify measured EC50 for COc1cccc2c1C(=O)c1c(O)c3c(c(O)c1C2=O)C[C@@](O)(C(=O)CO)C[C@@H]3O[C@H]1C[C@H](N)[C@H](O)[C@H](C)O1 .
Given back: 5.15
